- Tested on: RWP1 cells
- test_description: Effect of anti-FZD5 Fabs on proliferation of pancreatic cancer cell lines (percent growth inhibition)
- Assay type: cell-based, human
- experimental_setup: Fab 2 μg/ml
property: percent growth inhibition, RWP1 2 μg/ml (%)
Report only the number, with the unit % understood.

Incoming: Return percent growth inhibition, RWP1 2 μg/ml (reported value) for this molecule: Fab-2933: anti-FZD5 Fab with antibody variable region Fv-2933; CDR SEQ ID NOs: 35, 36, 72, 109, 148, 177 (antibody, V domains shown) VH: EVQLVESGGGLVQPGGSLRLSCAASGFNLYSSYMHWVRQAPGKGLEWVASIYSSYGYTSYADSVKGRFTISADTSKNTAYLQMNSLRAEDTAVYYCARTVRGSKKPYFSGWAMDYWGQGTLVTVSS VL: DIQMTQSPSSLSASVGDRVTITCRASQSVSSAVAWYQQKPGKAPKLLIYSASSLYSGVPSRFSGSRSGTDFTLTISSLQPEDFATYYCQQFWWYASWLFTFGQGTKVEIK
Outgoing: −21.16

Here's the next entry for you.
Incoming: Return percent growth inhibition, RWP1 2 μg/ml (reported value) for this molecule: Fab-2936: anti-FZD5 Fab with antibody variable region Fv-2936; CDR SEQ ID NOs: 35, 36, 75, 112, 151, 179 (antibody, V domains shown) VH: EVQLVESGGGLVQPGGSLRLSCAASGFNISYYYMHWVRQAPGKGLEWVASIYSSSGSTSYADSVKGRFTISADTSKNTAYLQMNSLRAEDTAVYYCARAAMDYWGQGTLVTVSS VL: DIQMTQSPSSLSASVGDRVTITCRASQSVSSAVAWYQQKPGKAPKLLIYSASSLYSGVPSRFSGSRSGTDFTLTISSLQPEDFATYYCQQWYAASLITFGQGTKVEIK
Outgoing: 0.02

Cited source: patent US20210253718A1
